target: Aryl hydrocarbon receptor (Homo sapiens); assay: AHR activators, primary screen, cell-based, luminescence, luciferase reporter, human (AID 2796); conditions: AHR-responsive luciferase reporter cells, at 5 µM, hits give high values;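 note: 0% = vehicle wells and 100% = reference agonist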
Among all 320,000 compounds or so, about 8,000 (2.5%) were called active. Shown is part of a subset that was picked to be rich in actives.
property: activation (%)
Just the number please, in %, no unit attached.

Worked cases, activation given:
// sample CC(=O)NC(CC(=O)Nc1ccc(S(=O)(=O)N2CCOCC2)cc1)c1ccccc1 (stereo unspecified) , its activation was 0.88

// sample "Oc1ccc(C2Nc3cccc4cccc(c34)N2)cc1" , its activation was 9.92

// sample CCCNC(=S)NC1CC2CCCC(C1)N2CC(C)C (stereo unspecified) , its activation was 2.13

Others:
// sample "O=[N+]([O-])c1cc(S(=O)(=O)NCCc2ccccn2)ccc1Cl" , its activation was -0.28

// sample "c1c2c(cc3sc(N4CCCCC4)nc13)OCCO2" , its activation was -13.2

// sample "COc1ccc2nc(NC(=O)NC3CCCCC3)sc2c1" , its activation was 5.23

====

Listing of entries alongside the reported activation.
target: Aryl hydrocarbon receptor (Homo sapiens) (UniProt P35869); assay: AHR activators, primary screen, cell-based, luminescence, luciferase reporter, human (AID 2796); settings: AHR-responsive luciferase reporter cells, at 5 µM, hits give high values;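 note: 0% = vehicle wells and 100% = reference agonist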
Sequence (P35869 whole entry, looked up): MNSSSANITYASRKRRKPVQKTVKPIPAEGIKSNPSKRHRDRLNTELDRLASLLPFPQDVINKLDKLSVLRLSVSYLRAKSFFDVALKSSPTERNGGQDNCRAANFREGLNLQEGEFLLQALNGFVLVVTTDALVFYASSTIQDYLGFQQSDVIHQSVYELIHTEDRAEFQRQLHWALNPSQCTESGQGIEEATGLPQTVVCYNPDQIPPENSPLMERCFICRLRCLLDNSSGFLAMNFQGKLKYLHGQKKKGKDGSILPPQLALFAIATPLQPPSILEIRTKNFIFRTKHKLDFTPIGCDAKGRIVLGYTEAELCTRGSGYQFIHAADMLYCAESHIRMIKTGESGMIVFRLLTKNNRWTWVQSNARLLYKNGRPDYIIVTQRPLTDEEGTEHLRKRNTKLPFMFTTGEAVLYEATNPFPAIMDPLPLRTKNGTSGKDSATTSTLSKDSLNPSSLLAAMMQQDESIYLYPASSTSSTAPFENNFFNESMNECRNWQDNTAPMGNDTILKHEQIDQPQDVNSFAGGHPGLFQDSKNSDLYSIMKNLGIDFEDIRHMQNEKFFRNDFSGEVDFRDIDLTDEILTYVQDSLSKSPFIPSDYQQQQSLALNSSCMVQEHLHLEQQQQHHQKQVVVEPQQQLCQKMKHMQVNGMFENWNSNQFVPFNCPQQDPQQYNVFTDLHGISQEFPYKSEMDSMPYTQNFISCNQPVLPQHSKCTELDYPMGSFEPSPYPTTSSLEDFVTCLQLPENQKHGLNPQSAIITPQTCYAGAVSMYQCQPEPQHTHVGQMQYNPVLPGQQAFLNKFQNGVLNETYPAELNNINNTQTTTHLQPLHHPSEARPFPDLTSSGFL
In all, about 320,000 compounds went through this assay and about 8,000 (2.5%) were called active. This is one part of a sample in which actives are shown more often than they occur.

Worked cases, activation given:
// sample CCC(C)NC(=O)C1CCCN(C(=O)NC2CCCCC2)C1 (stereo not given) , its activation was 2.48% (inactive)

// sample "Nc1c(N(CCO)C(=O)C2CCCCC2)c(=O)[nH]c(=O)n1Cc1ccccc1" , its activation was 0.25% (inactive)

// sample "COc1ccc(CN2CCC(n3nccc3NC(=O)CCCc3ccccc3)CC2)cc1C" , its activation was -8.72% (inactive)

// sample "COc1ccc(-c2csc(NC(=O)COC(=O)c3ccc(Br)o3)n2)cc1" , its activation was 15.7% (inactive)

// sample "Cc1cccc(CS(=O)(=O)c2ncc(Cl)c(C(=O)Nc3ccc(F)cc3)n2)c1" , its activation was 27.3% (inactive)

// sample Cc1ccc(NC(=O)C2CCC(C(C)(C)C)CC2)cc1S(=O)(=O)N1CCOCC1 (stereo not given) , its activation was 1.24% (inactive)

Others:
// sample "COc1ccc(-c2csc(Cc3nc(O)cs3)n2)cc1" , its activation was 47.5% (active)

// sample "COCCN(CCOC)S(=O)(=O)NC[C@H]1O[C@@H](n2cnc3c(N)ncnc32)[C@H](O)[C@@H]1O" , its activation was 0.98% (inactive)

// sample "O=C(COC(=O)c1ccc(O)cc1O)NNC(=O)c1cccs1" , its activation was 0.36% (inactive)

// sample "Cc1ccc(-c2csc(-c3cc(C)on3)n2)cc1" , its activation was -2.07% (inactive)

====

Listing of entries alongside the reported activation.
biological target: Aryl hydrocarbon receptor (Homo sapiens) (UniProt P35869); assay: AHR activators, primary screen, cell-based, luminescence, luciferase reporter, human (AID 2796); details: AHR-responsive luciferase reporter cells, at 5 µM, hits give high values;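 note: 0% = vehicle wells and 100% = reference agonist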
Among all 320,000 compounds or so, about 8,000 (2.5%) were called active. For the sample, actives were picked, then their nearest neighbours and some compounds at random.
Just the number please, in %, no unit attached.

// sample "CC(=O)Nc1cccc(-c2nc3ccccc3s2)c1C" , its activation was -9.79

// sample "CCc1nc(C)cn1S(=O)(=O)c1cc([N+](=O)[O-])ccc1Cl" , its activation was -0.55

// sample "COc1ccc(OC)c(CNC(=O)CCc2nc(-c3cccs3)no2)c1" , its activation was 61.3

// sample "COC(=O)c1ccc([C@@H](O)[C@H](C)C(=O)CC(=O)OC(C)(C)C)cc1" , its activation was 1.52

// sample Brc1ccc(C2=CC(c3ccco3)n3ncnc3N2)cc1 (centres undefined) , its activation was 95.6

// sample "CCS(=O)(=O)c1ccc(O)c(NC(=O)COc2ccc(Cl)cc2)c1" , its activation was -3.28

// sample "c1ccc(-c2cn3c(n2)CCc2ccc4cccnc4c2-3)cc1" , its activation was 64

// sample CCCCNC(=O)C1CCCN(S(=O)(=O)c2ccc(S(=O)(=O)NCC(C)C)cc2)C1 (centres undefined) , its activation was -3.28

Others:
// sample "CCOc1cc(-c2cc(-c3ccc(OC)cc3)nc(N)c2C#N)ccc1O" , its activation was 0.62

// sample "COC(=O)c1oc2ccc(Br)cc2c1NC(C)=O" , its activation was 1.12

// sample Cc1nc(NC(CC(C)C)C(=O)O)c2nc(C)oc2n1 (centres undefined) , its activation was 1.08

// sample "c1ccc(-c2nccc(-c3ccc(-n4cnc5ccccc54)cc3)n2)nc1" , its activation was -6.06

// sample "CCOC(=O)c1[nH]c2ccc(OC)cc2c1NC(=O)CCN1CCN(Cc2ccccc2)CC1" , its activation was 4.33

// sample "O=[N+]([O-])c1ccc2oc(-c3cccc(O)c3)nc2c1" , its activation was 78

// sample N#Cc1ccc(C2N=C(c3ccccc3)NO2)cc1 (centres undefined) , its activation was 0.8

// sample "Cc1ccc(C(=O)Cc2nnc(C)s2)cc1" , its activation was -0.8

// sample "CCOc1cc(-c2cc(-c3ccc(NC(C)=O)cc3)nc(N)c2C#N)ccc1O" , its activation was 8.37

// sample "COc1ccc2oc(-c3cccc(NC(=O)CSc4ccc(Cl)cc4)c3)nc2c1" , its activation was 28.6

// sample "COc1cccc(-c2nnc(SCCOc3ccc4c(C)cc(=O)oc4c3)o2)c1" , its activation was -2.36

// sample O=C(Cn1cnc2ccccc2c1=O)NCC1COc2ccccc2O1 (centres undefined) , its activation was 0.29

// sample "CCN(CC(=O)Nc1ccccc1C(F)(F)F)C(=O)C1CCN(C(=O)Nc2ccccc2)CC1" , its activation was 0.13

// sample "COC(=O)[C@]1(Cc2ccccc2)N[C@H](CN(C)S(=O)(=O)c2ccc(OC(F)(F)F)cc2)[C@@H]2C(=O)N(C)C(=O)[C@@H]21" , its activation was -1.46

// sample "COC(=O)CSc1ccc2nnc(CCNS(=O)(=O)c3ccc(C)cc3)n2n1" , its activation was 0.87

====

Listing of entries alongside the reported activation.
target: Aryl hydrocarbon receptor (Homo sapiens); test: AHR activators, primary screen, cell-based, luminescence, luciferase reporter, human (AID 2796); conditions: AHR-responsive luciferase reporter cells, at 5 µM, hits give high values;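 note: 0% = vehicle wells and 100% = reference agonist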
Among all 320,000 compounds or so, about 8,000 (2.5%) were called active. The full list was thinned out, with actives kept by preference.
Just the number please, in %, no unit attached.

// sample "O=S(=O)(O)c1nc2ccccc2n1Cc1ccc(Cl)cc1Cl" , its activation was 3.2

// sample "CC(C)(C)C(=O)Cn1c(NCCO)nc2ccccc21" , its activation was -1.23

====

target: Aryl hydrocarbon receptor (Homo sapiens) (UniProt P35869); assay: AHR activators, primary screen, cell-based, luminescence, luciferase reporter, human (AID 2796); settings: AHR-responsive luciferase reporter cells, at 5 µM;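 note: 0% = vehicle wells and 100% = reference agonist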
About 8,000 (2.5%) of roughly 320,000 compounds were called active. Rule as the data show it: active = activation above about 47%; inactive = the rest. The sample holds actives, similar compounds and a random draw of the others, so the mix is not that of the screen.
Would you mind answering with one of these outcomes? T = active, F = inactive

Examples from the recorded data:
## Task Call for entry C[C@]12CC[C@H](O)CC1=CCC1C2CC[C@@]2(C)C1CC[C@@H]2NC(=O)CCC(=O)O (some centres undefined) :
## Result F

## Task Call for entry "CCCCn1c(N)c(N(Cc2ccccc2OC)C(=O)COc2cc(C)ccc2Cl)c(=O)[nH]c1=O" :
## Result F

## Task Call for entry "CCN(CCn1cccn1)Cc1cn[nH]c1-c1ccc(OC)cc1F" :
## Result F

## Task Call for entry "CCOc1ccc(S(=O)(=O)Nc2cccc(C(=O)NCC3(N4CCCCC4)CCCCC3)c2)cc1" :
## Result F

## Task Call for entry "CN(CC(=O)Nc1ccc(F)cc1)CC(=O)N1CCCCC1" :
## Result F

Others:
## Task Call for entry "O=C(COc1ccc(-c2ccccc2)cc1)NN=C1CCCC1" :
## Result T

## Task Call for entry COC(=O)C1=C(C)N(C(C)c2ccccc2)C(=O)/C1=C\c1ccco1 (centres undefined) :
## Result F

## Task Call for entry "Cc1occc(=O)c1OCc1c(Cl)cccc1Cl" :
## Result F

## Task Call for entry CCc1cc(C(=O)OC)c(NC(=O)CC2Sc3ccc(C(F)(F)F)cc3NC2=O)s1 (centres undefined) :
## Result F

## Task Call for entry "CC1=CC=CC2=N/C(=N\S(=O)(=O)c3ccc(F)cc3F)c3ccccc3CN12" :
## Result T

## Task Call for entry "COc1ccc(-c2nc(-c3ccccc3)no2)c(OC)c1" :
## Result T

## Task Call for entry "O=C(NNC(=O)c1cc2c(s1)CCCC2)c1ccccc1" :
## Result F

## Task Call for entry "O=C(O)c1cccc(NC(=S)N/N=C/c2c[nH]c3ccccc23)c1" :
## Result F

## Task Call for entry "CN(CC(=O)Nc1ccc(Cl)cc1)C(=O)c1ccc(COc2ccccc2)cc1" :
## Result F

Values from PubChem BioAssay AID2796
